# System: Veronica persica (VERPE)
# measurement-notes: Herbicidal pre-emergence action, section C (Table C10)
# Type: in vivo
# applied-conditions: application rate 320 g/ha; visual grading after ca. 3 weeks
readout-kind: pre-emergence activity against VERPE in %

compound | recorded-measurement
COCCOCCOCC(=O)N1CSc2cc(Br)c(-c3cccc(F)c3F)nc21 [Example I-148] | 80%
CC1(C(=O)N2CSc3cc(Br)c(-c4ccccc4)nc32)CC(Cl)=NO1 (stereo not shown) [Example I-139] | 80%
Cc1cc2c(nc1-c1ccccc1F)N(S(=O)(=O)Cc1ccc(F)cc1)CS2 [Example I-122] | 80%
COC(=O)CCC(=O)N1CSc2cc(C)c(-c3ccccc3F)nc21 [Example I-010] | 90%
